target: HIV-1 PR (Human immunodeficiency virus type 1 group M subtype B, UniProt P04585); assay: HIV-protease inhibitory activity assay (FRET peptide substrate); conditions: Test Example 1
Rule: measured IC50 below 2 nM gets T; anything equal to or greater than 2 nM gets F.

Recorded results for 6 compounds are shown here.
Req: Hi there! Is IC50 for COc1ccc(S(=O)(=O)N(CC(C)C)CC(O)C(Cc2ccc(OCc3ccccc3-c3ncc4c(c3C(=O)O)CCC(C)(C)C4)cc2)NC(=O)OC2COC3(C)OCCC23)cc1 (stereo not drawn) below 2 nM, do you know?
Resp: T

Req: Hi there! Is IC50 for COc1ccc(S(=O)(=O)N(CC(C)C)CC(O)C(Cc2ccc(NCc3ccccc3-c3sc4c(c3C(=O)O)CC(C)(C)CC4(C)C)cc2)NC(=O)OC2COC3(C)OCCC23)cc1 (stereo not drawn) below 2 nM, do you know?
Resp: F

Req: Hi there! Is IC50 for COc1ccc(S(=O)(=O)N(CC(C)C)CC(O)C(Cc2ccc(NCc3ncccc3C(=O)Nc3sc4c(c3C(=O)O)CC(C)(C)CC4)cc2)NC(=O)OC2COC3(C)OCCC23)cc1 (stereo not drawn) below 2 nM, do you know?
Resp: F

Req: Hi there! Is IC50 for COc1ccc(S(=O)(=O)N(CC(C)C)CC(O)C(Cc2ccc(NCC3=C(c4sc5c(c4C(=O)O)CC(C)(C)CC5)CCC(F)(F)C3)cc2)NC(=O)OC2COC3(C)OCCC23)cc1 (stereo not drawn) below 2 nM, do you know?
Resp: F

Req: Hi there! Is IC50 for COc1ccc(S(=O)(=O)N(CC(C)C)CC(O)C(Cc2ccc(NCc3ccc(OCC(=O)O)cc3)cc2)NC(=O)OC2COC3(C)OCCC23)cc1 (stereo not drawn) below 2 nM, do you know?
Resp: T

Req: Hi there! Is IC50 for COc1ccc(S(=O)(=O)N(CC(C)C)CC(O)C(Cc2ccc(N(C)Cc3ccc(C)cc3C(=O)Nc3sc4c(c3C(=O)O)CC(C)(C)CC4)cc2)NC(=O)OC2COC3(C)OCCC23)cc1 (stereo not drawn) below 2 nM, do you know?
Resp: F

New cases:
Req: Hi there! Is IC50 for COc1ccc(S(=O)(=O)N(CC(C)C)CC(O)C(Cc2ccc(N(C)Cc3ccccc3-c3c(C(=O)O)c4ccccc4n3C)cc2)NC(=O)OC2COC3(C)OCCC23)cc1 (stereo not drawn) below 2 nM, do you know?
Resp: T

Req: Hi there! Is IC50 for COc1ccc(S(=O)(=O)N(CC(C)C)CC(O)C(Cc2ccc(OCC3CCC(Nc4ccc(C#N)cc4-c4sc5c(c4C(=O)O)CC(C)(C)CC5)CC3)cc2)NC(=O)OC2COC3(C)OCCC23)cc1 (stereo not drawn) below 2 nM, do you know?
Resp: F

Req: Hi there! Is IC50 for COc1ccc(S(=O)(=O)N(CC(C)C)CC(O)C(Cc2ccc(NCc3ccccc3-c3c(C(=O)O)cnc4ccc(OC)cc34)cc2)NC(=O)OC2COC3(C)OCCC23)cc1 (stereo not drawn) below 2 nM, do you know?
Resp: T

* * *

target: HIV-1 PR (Human immunodeficiency virus type 1 group M subtype B, UniProt P04585); assay: HIV-protease inhibitory activity assay (FRET peptide substrate); details: Test Example 1
Readout type: IC50 (nM)
Numeric only. Scale: nM

Req: # get_value(readout='IC50', item= COc1ccc(S(=O)(=O)N(CC(C)C)CC(O)C(Cc2ccc(OCc3ccccc3-c3sc4c(c3C(=O)O)CC(C)(C)CC4)cc2)NC(=O)OC2COC3(C)OCC(O)C23)cc1 (stereo not shown) [Compound I-56] )
Resp: 1.21

Req: # get_value(readout='IC50', item= COc1ccc(S(=O)(=O)N(CC(C)C)CC(O)C(Cc2ccc(OCCNc3ccc(C#N)cc3-c3sc4c(c3C(=O)O)CC(C)(C)CC4)cc2)NC(=O)OC2COC3(C)OCCC23)cc1 (stereo not shown) [Compound I-258] )
Resp: 5.23

New cases:
Req: # get_value(readout='IC50', item= COc1ccc(S(=O)(=O)N(CC(C)C)CC(O)C(Cc2ccc(OC3CC(N(C)c4ccccc4-c4sc5c(c4C(=O)O)CC(C)(C)CC5)C3)cc2)NC(=O)OC2COC3(C)OCCC23)cc1 (stereo not shown) [Compound I-382] )
Resp: 7.26

Req: # get_value(readout='IC50', item= COc1ccc(S(=O)(=O)N(CC(C)C)CC(O)C(Cc2ccc(OC3CC(N(C)c4ccccc4-c4sc5c(c4C(=O)O)CC(C)(C)CC5)C3)cc2)NC(=O)OC2COC3(C)OCCC23)cc1 (stereo not shown) [Compound I-364] )
Resp: 5.39

Req: # get_value(readout='IC50', item= CC1(C)CCc2sc(-c3ccc(CCCN(CC(O)C(Cc4ccccc4)NC(=O)OC4COC5(C)OCCC45)S(=O)(=O)c4ccc5ncsc5c4)cc3)c(C(=O)O)c2C1 (stereo not shown) [Compound I-164] )
Resp: 2.07

Req: # get_value(readout='IC50', item= COc1ccc(S(=O)(=O)N(CC(C)C)CC(O)C(Cc2ccc(NCc3cnc(OC)cc3-c3sc4c(c3C(=O)O)CC(C)(C)CC4)cc2)NC(=O)OC2COC3(C)OCCC23)cc1 (stereo not shown) [Compound I-278] )
Resp: 1.83

Req: # get_value(readout='IC50', item= COc1ccc(S(=O)(=O)N(CC(C)C)CC(O)C(Cc2ccc(OC3CN(c4cc(C(F)(F)F)ccc4-c4sc5c(c4C(=O)O)CC(C)(C)CC5)C3)cc2)NC(=O)OC2COC3(C)OCCC23)cc1 (stereo not shown) [Compound I-354] )
Resp: 44.2

Req: # get_value(readout='IC50', item= COc1ccc(S(=O)(=O)N(CC(C)C)CC(O)C(Cc2ccc(OCc3ncccc3-c3sc4c(c3C(=O)O)CC(C)(C)CC4)cc2)NC(=O)OC2COC3OCCC23)cc1 (stereo not shown) [Compound I-827] )
Resp: 0.81
